measurement protocol: RAM signaling pathway blockade in yeast – S. cerevisiae, Pdr1DBD-CYC8 efflux-inhibited sensitized strain, primary screen (AID 1298);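 also: 0% = DMSO untreated cells without growth and 100% = 10 µM 1-NA-PP1 full growth; higher means more yeast growth rescued from 5-FOA killing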
test settings: S. cerevisiae cbk1-as DSE1-URA3 strain, 5-FOA growth OD615, 2 d; at 50 µM; stronger effect = higher value
measured metric: RAM network inhibition (%)
Reply numerically in %, unit not repeated.

# example entries with known answers
O=C(Nc1ccc2c(c1)OCO2)c1ccc(CN2CCOCC2)cc1    9.65
Cc1c(C#N)c2ccccc2n1CC(=O)N1CCc2ccccc2C1    4.34
COc1ccc(OC)c(CNC(=O)CCc2nc(-c3cccs3)no2)c1    2.56
CCOC(=O)Nc1ccc2ncn(C)c(=O)c2c1    1.08
CC(=O)c1ccc(NC(=O)CSC(C)C)cc1    0.37
CCOC(=O)C1CCCN(C(=O)Cn2nc(Cc3cccnc3)c3ccccc3c2=O)C1 (stereo not drawn)    2.19
O=C(O)CC(C(=O)Nc1cccc(C(F)(F)F)c1)C1CCCO1 (stereo not drawn)    2.56

Attention now shifts to the item below.
Incoming: Tell me RAM network inhibition reported for CCOC(=O)Cc1c(C)nc2c(-c3ccccc3)c[nH]n2c1=O
Outgoing: 10.5

---

measurement protocol: MRP1 drug-resistance reversers in H69AR cells – cell-based, doxorubicin co-treatment, pilot screen (AID 601)
test settings: H69AR cells + 2 uM doxorubicin, CellTiter-Glo, 72 h; measured here: viability with 2 uM doxorubicin; at 10 µM; stronger effect = lower value
measured metric: viability (%)
A number alone suffices; assume %.

Please review the following examples before continuing.
Cn1ccnc1C(O)c1ccco1 (centres undefined)    89.5
C=CCSc1nc(N)c2c(C)c(C)sc2n1    83.5
CCOC(=O)C1=C(C)NC(=O)NC1c1ccc(Br)s1 (centres undefined)    83.5

Now let's try a different one.
Incoming: Return reported viability. Input compound: COc1ccc(NC(=O)c2cc(C3CC3)on2)c(OC)c1
Outgoing: 99.1

---

List of RAM network inhibition values.
measurement protocol: RAM signaling pathway blockade in yeast – S. cerevisiae, Pdr1DBD-CYC8 efflux-inhibited sensitized strain, primary screen (AID 1298);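 also: 0% = DMSO untreated cells without growth and 100% = 10 µM 1-NA-PP1 full growth; higher means more yeast growth rescued from 5-FOA killing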
test settings: S. cerevisiae cbk1-as DSE1-URA3 strain, 5-FOA growth OD615, 2 d; at 50 µM; stronger effect = higher value
Give a bare numeral; the unit % is implied.

Incoming: Tell me its RAM network inhibition given CCn1cc(C(=O)NCC2CCCO2)c(=O)c2cc(S(=O)(=O)N(C)C3CCCCC3)ccc21 (centres undefined) as the entry.
Outgoing: -0.83

Incoming: Respond only with RAM network inhibition recorded for O=C(c1ccc(CSCc2ccccc2F)o1)N1CCN(c2ccc(N3CCOCC3)nn2)CC1
Outgoing: 2.93

Incoming: Using known records, supply RAM network inhibition for CCN(CC)CCNC(=O)c1ccc(CS(=O)(=O)c2ccc(Br)cc2)o1
Outgoing: 0.74

---

Below, each entry is listed alongside its reported viability.
measurement protocol: viability of PTEN-null HCT116 cells – cell-based, HCT116 clonal line, CellTiter-Glo, pilot screen (AID 824);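 also: 0% = 20 µM Hyamine control and 100% = vehicle cell control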
test settings: HCT116 PTEN-deleted viability, 60 h, at 10 µM, stronger effect = lower value
Results filed as inconclusive are left out.
Numeric only. Scale: %

Look over these answered cases.
CC(C)(C)NC(=O)CC(CC(=O)O)c1ccccc1 (centres undefined)    101
CC(C)n1c(SCc2ccccc2F)nc2c1c(=O)n(C)c(=O)n2C    76.5
O=C(OCC1COc2ccccc2O1)c1c(F)cccc1F (centres undefined)    95.8

Now examine the next entry.
Incoming: Retrieve viability measured for CN(C)c1oc(-c2ccccc2F)nc1C#N and print it.
Outgoing: 106
